Origin of the recorded values: PubChem BioAssay (NCI)

- method-summary: NCI Yeast Anticancer Drug Screen. Data for the bub3 strain (AID 167)
- stated-conditions: S. cerevisiae bub3 mutant strain, at 50.0 µM, hits give high values
This is part of a sample that, as a whole, favours compounds with a hit. Of some 79,000 tested, about 15% had one in any assay.
// reported growth inhibition for each item listed
attribute-measured: growth inhibition (%)

molecule	attribute-measured	unit-string	experimental-value
N#CSCN1C(=O)C2CC=CCC2C1=O (stereo not drawn)	growth inhibition	%	95.5
CCCCCN(CCCCC)C(=O)CCl	growth inhibition	%	82.5
NC(=O)C(CCc1cccc2ccccc12)c1ccccc1 (stereo not drawn)	growth inhibition	%	95.8
C[C@]12CC[C@H](O)CC1=CC[C@@H]1C2CC[C@]2(C)C(=O)N(N)C(=O)CC12 (stereo partly drawn)	growth inhibition	%	86.7
CCN(CC)CCOc1ccc(/C(C#N)=C/c2ccc3ccccc3c2)cc1	growth inhibition	%	99.4
CC(=O)NC1=C(Nc2ccc(-c3ccc(NC4=C(NC(C)=O)C(=O)c5ccccc5C4=O)cc3)cc2)C(=O)c2ccccc2C1=O	growth inhibition	%	98.7
Nc1c(-c2ccc(C3=NCCN3)cc2)[nH]c2cc(C3=NCCN3)ccc12	growth inhibition	%	74.1
Cc1ccc(S(=O)(=O)NNC(=O)c2sc(-c3nc(C)c(C(=O)NNS(=O)(=O)c4ccc(C)cc4)s3)nc2C)cc1	growth inhibition	%	14.3
